System: rodent lifetime carcinogenesis bioassay, tumor incidence TD50
assay details: carcinogenic potency in animals, long-term in vivo studies, CPDB compilation (AID 1745844)
recorded conditions: mouse; strain Charles River CD1; males; inhaled; site: liver; lesion: several types; types named in the paper; dosed 78 weeks; study length 78 weeks
property measured: TD50

compound: CCC(C)=NO
property measured: TD50
result: 534 mg/kg/day

###

Test system: rodent lifetime carcinogenesis bioassay, tumor incidence TD50
assay details: carcinogenic potency in animals, long-term in vivo studies, CPDB compilation (AID 1745844)
recorded conditions: mouse; strain Charles River CD1; females; in feed; site: lung; lesion: bronchiolar adenoma; dosed 104 weeks; study length 104 weeks
Calls of active or inactive are those of the source. How the calls were made is not given here.
property measured: TD50

compound: CCN(Cc1cccc(S(=O)(=O)O)c1)c1ccc(C(=C2C=CC(=[N+](CC)Cc3cccc(S(=O)(=O)O)c3)C=C2)c2ccccc2S(=O)(=O)[O-])cc1
property measured: TD50
result: 856000 mg/kg/day (inactive)
